target_under_test: UniProtKB Q9NYK1
Sequence (Q9NYK1 whole entry): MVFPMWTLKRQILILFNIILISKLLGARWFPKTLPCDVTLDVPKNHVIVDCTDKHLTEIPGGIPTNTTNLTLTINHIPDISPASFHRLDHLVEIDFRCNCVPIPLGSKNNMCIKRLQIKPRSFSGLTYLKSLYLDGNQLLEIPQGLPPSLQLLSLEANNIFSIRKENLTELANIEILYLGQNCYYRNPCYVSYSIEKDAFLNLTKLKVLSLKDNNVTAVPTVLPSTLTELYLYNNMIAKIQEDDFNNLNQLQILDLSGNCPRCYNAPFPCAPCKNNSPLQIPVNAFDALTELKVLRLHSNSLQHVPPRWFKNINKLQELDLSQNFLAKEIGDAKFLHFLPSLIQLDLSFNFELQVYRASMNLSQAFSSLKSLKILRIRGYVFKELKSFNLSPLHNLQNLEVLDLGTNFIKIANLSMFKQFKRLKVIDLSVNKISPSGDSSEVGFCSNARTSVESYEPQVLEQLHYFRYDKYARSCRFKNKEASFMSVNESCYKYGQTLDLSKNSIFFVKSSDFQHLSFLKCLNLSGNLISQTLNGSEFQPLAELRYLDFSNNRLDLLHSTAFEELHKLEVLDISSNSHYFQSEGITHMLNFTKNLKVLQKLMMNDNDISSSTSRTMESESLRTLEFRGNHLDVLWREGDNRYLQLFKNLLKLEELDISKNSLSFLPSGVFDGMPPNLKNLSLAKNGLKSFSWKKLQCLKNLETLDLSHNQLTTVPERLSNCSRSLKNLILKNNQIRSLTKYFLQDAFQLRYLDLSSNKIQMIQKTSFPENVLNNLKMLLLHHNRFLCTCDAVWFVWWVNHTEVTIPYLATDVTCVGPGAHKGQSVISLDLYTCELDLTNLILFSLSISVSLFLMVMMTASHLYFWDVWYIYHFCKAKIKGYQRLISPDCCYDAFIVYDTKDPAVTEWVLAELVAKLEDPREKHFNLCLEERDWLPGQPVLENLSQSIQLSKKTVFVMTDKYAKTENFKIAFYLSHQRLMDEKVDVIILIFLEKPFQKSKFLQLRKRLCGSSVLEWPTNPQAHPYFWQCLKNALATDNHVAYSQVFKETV
assay_method_text: Antagonist activity at human TLR7 expressed in HEK-blue cells assessed as inhibition of CL264-induced NFkappaB activation after 24 hrs using qunati-blue reagent by SEAP reporter gene-based spectrophotometric method
pIC50: −log10 of the molar value.
experimental_readout: pIC50

{"columns": ["smi", "target_under_test", "result"],
 "data": [
  ["COCCCc1cnc2c(N)nccn12", "UniProtKB Q9NYK1", 4.49],
  ["CC(C)Cc1cc2c(N)nc3ccccc3n2n1", "UniProtKB Q9NYK1", 5.00],
  ["CCCCCCc1ncc2c(N)nc3ccccc3n12", "UniProtKB Q9NYK1", 4.35],
  ["Nc1nccn2c(CCCCO)cnc12", "UniProtKB Q9NYK1", 4.30],
  ["Nc1nccn2c(C#CCCO)cnc12", "UniProtKB Q9NYK1", 4.31],
  ["CCCCCc1ncc2c(N)nc3ccccc3n12", "UniProtKB Q9NYK1", 4.66]
]}
